// data source = PubChem BioAssay (NCI)

Parameter: growth inhibition. Scope: all listed entries.
test: NCI Yeast Anticancer Drug Screen. Data for the rad50 strain (AID 155);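 also: 0% = growth of vehicle-only cultures of the same strain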; settings: S. cerevisiae rad50 strain growth inhibition; at 5.0 µM (retest, dose inferred, filed as 0.5); stronger effect = higher value
Compounds without any hit were thinned out: in the full panel of roughly 79,000, 15% have a hit.
Your answer should be a plain number; it is taken to be in %.

Here is how some molecules turned out for growth inhibition.
COC(=O)CCCCCOS(=O)(=O)c1ccc(C)cc1
1
Cc1c(-c2ccccc2)sc(/N=C/c2cc(Br)cc(Br)c2O)c1C#N
-17

## Task Please report the recorded growth inhibition for N#C/C(=C\c1cccnc1)c1csc2ccccc12 .
## Result 2
